Tested on: Rat fibroblasts (CREF)
Run description: Peg3 promoter luciferase inhibitors, potency, dose response, cell-based, HeLa, CREF/GAPDH counter-screen panel (AID 624167)
Measurement context: CREF/GAPDH counter-screens, mean of runs
Activity calls are given as the source filed them.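 How the source made its calls: active means mean IC50 for reducing PEG3 promoter reporter signal at or below a set limit, with IC50 above the limit in both counter screens; inactive means the rest, including counter screen hits.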
Endpoint label: IC50

Example molecules with recorded IC50:
Case "O=C(COc1ccc(Cl)cc1Cl)Nc1ccccn1" , Rat fibroblasts (CREF), IC50 recorded as 0.904 µM

Case COC(=O)C1C=CC(OC2OC(COC(C)=O)C(OC(C)=O)C(OC(C)=O)C2OC(C)=O)n2c(=O)n(-c3ccccc3)c(=O)n21 (configuration not stated) , Rat fibroblasts (CREF), IC50 recorded as 8.06 µM

Case "COc1ccccc1C(=O)Nc1nc2ccccc2[nH]1" , Rat fibroblasts (CREF), IC50 recorded as 0.28 µM

Case "O=[N+]([O-])c1nn(-c2ccc3c(c2)OCCO3)n(O)c1=Nc1ccc(Cl)cc1" , Rat fibroblasts (CREF), IC50 recorded as > 100 µM (inactive)

Case "O=C(Nc1ccc(N2CCOCC2)cc1)c1cnsn1" , Rat fibroblasts (CREF), IC50 recorded as 2.59 µM

Continuing:
Case "Cc1cnc(NC(=O)c2ccc3c(c2)OCCO3)s1" , Rat fibroblasts (CREF), IC50 recorded as 0.454 µM

Case "CCOC(=O)Cc1csc(NC(=S)NC(=O)c2ccc(Cl)cc2)n1" , Rat fibroblasts (CREF), IC50 recorded as 4.97 µM

Case "CCc1ccc(/C=C2\SC(=S)N(CCCC(=O)Nc3ccccn3)C2=O)cc1" , Rat fibroblasts (CREF), IC50 recorded as 50.2 µM (inactive)

Case "CN(C)c1ccc(/C=C2\SC(=O)N(CCc3nnc(N)s3)C2=O)cc1" , Rat fibroblasts (CREF), IC50 recorded as 3.18 µM

Case "COc1cccc(/C=N/NC(=O)c2ccc(-c3ccccc3)cc2)c1O" , Rat fibroblasts (CREF), IC50 recorded as 24.9 µM

Case "COc1ccc(CCN2C(=O)C=CC2=O)cc1OC" , Rat fibroblasts (CREF), IC50 recorded as 7.92 µM

Case "CS(=O)(=O)c1ccc(-c2sc3ccccc3c2C#CCCO)cc1" , Rat fibroblasts (CREF), IC50 recorded as 32.3 µM

Case "CN(C)c1ccc(Nc2nc(N)c3ccccc3n2)cc1" , Rat fibroblasts (CREF), IC50 recorded as 0.995 µM

Case CCC(c1nnnn1-c1ccc2c(c1)OCCO2)N1CCC(n2c(=O)[nH]c3ccccc32)CC1 (configuration not stated) , Rat fibroblasts (CREF), IC50 recorded as > 100 µM (inactive)

Case CS(=O)(=O)Nc1cccc(NC(=O)C2Cc3c(-c4cccc(F)c4)ccnc3O2)c1 (configuration not stated) , Rat fibroblasts (CREF), IC50 recorded as > 100 µM (inactive)

====

Tested on: Rat fibroblasts (CREF)
Run description: Peg3 promoter luciferase inhibitors, potency, dose response, cell-based, HeLa, CREF/GAPDH counter-screen panel (AID 624167)
Measurement context: CREF/GAPDH counter-screens, run 1, dose range 1, individual replicate IC50 per panel
Endpoint label: pIC50
Just the number, please; pIC50 means minus log10 of the concentration in mol/L.

Example compounds with recorded pIC50:
Consider "COc1cc(NS(C)(=O)=O)ccc1Nc1c2ccccc2nc2ccccc12" . Its measured pIC50 is 5.06

Consider "O=C(CCl)N1c2ccccc2Sc2ccc3ccccc3c21" . Its measured pIC50 is 4.61

Consider "CCOC(=O)c1cnc(Nc2nc3ccccc3o2)nc1C" . Its measured pIC50 is 5.90

Consider "COc1ccc(C(=O)Nc2nc3ccccc3s2)c(OC)c1" . Its measured pIC50 is 6.48

Consider "CCc1ccc(C(=O)Nc2nc3ccccc3[nH]2)cc1" . Its measured pIC50 is 6.53

Continuing:
Consider "COC(CNC(=O)c1ccc2c3c(onc13)-c1ccccc1C2=O)OC" . Its measured pIC50 is 4.76

Consider "Cc1c([N+](=O)[O-])cc(N2C(=O)C=CC2=O)cc1[N+](=O)[O-]" . Its measured pIC50 is 4.78

Consider "O=C(O)c1cccc(COc2ccc(CO)cc2Cl)c1" . Its measured pIC50 is 5.06

Consider "COC(=O)c1c(N)sc(C(=O)NCCc2ccccc2)c1C" . Its measured pIC50 is 5.36

Consider "O=c1c2ccccc2sc2ccc(C#CC3(O)CCCCC3)cc12" . Its measured pIC50 is 5.87
